Below, each of the molecules is paired with its reported inhibition value.
target: Mitogen-activated protein kinase kinase kinase kinase 2 (Homo sapiens); details: at 0.1 µM;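 further: values given as mean percent inhibition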
Supply the numeric figure in %, leaving out any unit text.

Reference set, count: 2
Exam item: Returns the measured inhibition for the input molecule. Input: CCN1CCC(C(=O)Nc2n[nH]c3nnc(-c4cccc(F)c4F)cc23)CC1
Marked response: 2.45

Exam item: Returns the measured inhibition for the input molecule. Input: COc1ccc2ncn(-c3cc(O[C@H](C)c4ccccc4C(F)(F)F)c(C(N)=O)s3)c2c1
Marked response: 0.64

---
Exam item: Returns the measured inhibition for the input molecule. Input: CC1=C(C(=O)Nc2ccc3[nH]ncc3c2)C(c2ccc(F)cc2)N=C(c2ccc(C(F)(F)F)nc2)N1 (stereo not given)
Marked response: 1.59

Exam item: Returns the measured inhibition for the input molecule. Input: COc1ccccc1-c1cc(/C=C2\C(=O)Nc3ncc(Br)cc32)cc(Br)c1O
Marked response: 0.42

Exam item: Returns the measured inhibition for the input molecule. Input: NS(=O)(=O)c1ccc(N/N=C2\C(=O)Nc3ccc(C(=O)NCc4ccncc4)cc32)cc1
Marked response: 0.75

* * *

Below, each of the molecules is paired with its reported inhibition value.
target: Serine/threonine-protein kinase B-raf (Homo sapiens); conditions: at 0.1 µM;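 further: mean percent inhibition of BRAF kinase activity, from the GSK PKIS kinase inhibitor screening set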

Reference set, count: 5
Exam item: Returns the measured inhibition for the input molecule. Input: Cc1cc(O)cc(C)c1/C=C/c1cncc(C(N)=O)c1
Marked response: 4.77%

Exam item: Returns the measured inhibition for the input molecule. Input: COc1ccc(-c2nn3ncccc3c2-c2ccnc(Nc3ccc(F)c(F)c3)n2)cc1
Marked response: 5.72%

Exam item: Returns the measured inhibition for the input molecule. Input: CCS(=O)(=O)c1ccc(OC)c(Nc2ncc(-c3cccc(F)c3)o2)c1
Marked response: 7.42%

Exam item: Returns the measured inhibition for the input molecule. Input: COC(=O)Nc1nc2cc(Oc3ccc(NC(=O)Nc4ccccc4)cc3)ccc2[nH]1
Marked response: 4.74%

Exam item: Returns the measured inhibition for the input molecule. Input: CS(=O)(=O)CCNCc1ccc(-c2ccc3ncnc(Nc4ccc(OCc5cccc(C(F)(F)F)c5)cc4)c3c2)o1
Marked response: 6.08%

---
Exam item: Returns the measured inhibition for the input molecule. Input: O=C(O[C@H]1CN[C@H](C#Cc2cc3ncnc(Nc4ccc(OCc5cccc(F)c5)c(Cl)c4)c3s2)C1)N1CCOCC1
Marked response: 9.9%

Exam item: Returns the measured inhibition for the input molecule. Input: Fc1cccc(COc2ccc(Nc3ncncc3C#Cc3ccccc3)cc2Cl)c1
Marked response: 6.77%

Exam item: Returns the measured inhibition for the input molecule. Input: COc1cc(N2CCN(C(C)C)CC2)ccc1Nc1nc(Nc2cccc3ncccc23)c2cc[nH]c2n1
Marked response: -0.4%

Exam item: Returns the measured inhibition for the input molecule. Input: CN1CCC(n2cnc(-c3ccc(F)cc3)c2-c2ccnc(NCCO)n2)CC1
Marked response: 5.28%

* * *

target: Ephrin type-A receptor 3 (Homo sapiens) (UniProt P29320); conditions: at 0.1 µM;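 further: values are mean inhibition of EPHA3, from the GSK PKIS dataset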
Sequence (P29320 whole entry): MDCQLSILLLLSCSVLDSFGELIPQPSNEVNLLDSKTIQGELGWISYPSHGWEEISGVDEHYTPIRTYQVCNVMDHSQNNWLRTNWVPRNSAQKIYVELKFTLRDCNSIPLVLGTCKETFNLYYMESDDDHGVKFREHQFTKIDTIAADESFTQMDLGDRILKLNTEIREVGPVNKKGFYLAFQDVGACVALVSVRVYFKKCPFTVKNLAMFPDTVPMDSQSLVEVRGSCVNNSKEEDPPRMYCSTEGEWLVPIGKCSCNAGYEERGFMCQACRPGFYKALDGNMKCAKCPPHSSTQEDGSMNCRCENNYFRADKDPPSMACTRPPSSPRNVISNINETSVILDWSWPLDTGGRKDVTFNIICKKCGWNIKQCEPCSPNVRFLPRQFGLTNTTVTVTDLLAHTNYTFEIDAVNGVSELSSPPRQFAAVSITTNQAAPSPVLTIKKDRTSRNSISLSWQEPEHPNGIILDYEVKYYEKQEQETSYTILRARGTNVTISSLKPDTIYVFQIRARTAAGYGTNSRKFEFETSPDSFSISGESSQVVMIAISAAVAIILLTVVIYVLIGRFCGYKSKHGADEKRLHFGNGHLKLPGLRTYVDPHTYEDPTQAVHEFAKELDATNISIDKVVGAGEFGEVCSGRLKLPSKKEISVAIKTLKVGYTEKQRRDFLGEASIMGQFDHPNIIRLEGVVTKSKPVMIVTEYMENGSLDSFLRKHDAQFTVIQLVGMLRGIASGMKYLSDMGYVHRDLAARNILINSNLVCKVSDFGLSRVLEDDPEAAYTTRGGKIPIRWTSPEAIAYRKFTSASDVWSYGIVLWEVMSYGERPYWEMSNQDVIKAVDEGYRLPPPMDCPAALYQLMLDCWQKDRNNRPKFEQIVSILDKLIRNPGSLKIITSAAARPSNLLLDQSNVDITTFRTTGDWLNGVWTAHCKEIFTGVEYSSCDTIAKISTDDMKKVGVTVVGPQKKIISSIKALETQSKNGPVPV
endpointLabel: inhibition (%)
Supply the numeric figure in %, leaving out any unit text.

Reference set, count: 3
Exam item: Recall the recorded inhibition for O=C(O[C@H]1CN[C@H](C#Cc2cc3ncnc(Nc4ccc5c(cnn5Cc5ccccc5)c4)c3s2)C1)N1CCOCC1 with Ephrin type-A receptor 3 (Homo sapiens) (UniProt P29320) and state it.
Marked response: -0.31

Exam item: Recall the recorded inhibition for NS(=O)(=O)c1ccc(N/N=C2\C(=O)Nc3ccc(C(=O)NCc4ccncc4)cc32)cc1 with Ephrin type-A receptor 3 (Homo sapiens) (UniProt P29320) and state it.
Marked response: 4.4

Exam item: Recall the recorded inhibition for O=C1Nc2ccccc2/C1=C1\CCc2cc(O)ccc21 with Ephrin type-A receptor 3 (Homo sapiens) (UniProt P29320) and state it.
Marked response: 6.06

---
Exam item: Recall the recorded inhibition for Fc1ccc(Nc2nccc(-c3c(-c4ccc(C(F)(F)F)cc4)nn4ncccc34)n2)cc1F with Ephrin type-A receptor 3 (Homo sapiens) (UniProt P29320) and state it.
Marked response: 2.83

Exam item: Recall the recorded inhibition for COc1c(C(N)=O)cc(-c2ccc(Cl)cc2)cc1-c1ccc(S(N)(=O)=O)cc1 with Ephrin type-A receptor 3 (Homo sapiens) (UniProt P29320) and state it.
Marked response: 3.06
